SYSTEM TESTED: OCT1 (Homo sapiens, UniProt O15245)
Construct: expressed in transfected cells; host or cells: HEK293
Sequence (O15245 whole entry): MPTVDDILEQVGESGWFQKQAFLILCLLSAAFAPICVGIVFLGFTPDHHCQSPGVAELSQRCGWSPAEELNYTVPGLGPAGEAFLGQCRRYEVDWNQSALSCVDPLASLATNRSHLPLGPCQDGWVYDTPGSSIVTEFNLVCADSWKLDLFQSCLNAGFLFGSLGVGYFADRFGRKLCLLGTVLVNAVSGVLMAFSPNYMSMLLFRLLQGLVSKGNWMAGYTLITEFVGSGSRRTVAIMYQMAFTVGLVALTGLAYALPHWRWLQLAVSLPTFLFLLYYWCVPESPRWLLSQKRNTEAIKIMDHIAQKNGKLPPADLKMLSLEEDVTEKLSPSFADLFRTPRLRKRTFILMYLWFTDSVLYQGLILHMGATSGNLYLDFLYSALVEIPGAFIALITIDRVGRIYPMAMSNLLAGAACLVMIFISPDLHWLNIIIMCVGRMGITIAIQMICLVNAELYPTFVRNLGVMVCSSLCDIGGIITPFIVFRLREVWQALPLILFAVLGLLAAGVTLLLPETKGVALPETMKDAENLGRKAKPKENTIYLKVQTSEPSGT
EXPERIMENTAL DETAILS: Cell uptake in OCT1 overexpressing HEK293 cells over empty-vector transfected cells
Assay type: cell-based
MEASUREMENT LABEL: OCT1 Ratio

{"COMPOUND": "CN[C@@H](C)[C@H](O)c1ccccc1", "MEASUREMENT LABEL": "OCT1 Ratio", "READOUT VALUE": 1.50}
{"COMPOUND": "CN(C)CC(c1ccc(O)cc1)C1(O)CCCCC1 (stereo not drawn)", "MEASUREMENT LABEL": "OCT1 Ratio", "READOUT VALUE": 3.30}
{"COMPOUND": "COc1ccc2c3c1O[C@H]1C(=O)CC[C@@]4(O)[C@@H](C2)N(C)CC[C@]314", "MEASUREMENT LABEL": "OCT1 Ratio", "READOUT VALUE": 0.90}
{"COMPOUND": "CCOC(=O)[C@]1(c2ccccc2)CCC=C[C@H]1NC", "MEASUREMENT LABEL": "OCT1 Ratio", "READOUT VALUE": 1.62}
{"COMPOUND": "COc1cccc2c1C(=O)c1c(O)c3c(c(O)c1C2=O)C[C@@](O)(C(C)=O)C[C@@H]3O[C@H]1C[C@H](N)[C@H](O)[C@H](C)O1", "MEASUREMENT LABEL": "OCT1 Ratio", "READOUT VALUE": 1.10}
{"COMPOUND": "Fc1ccc([C@@H]2CCNC[C@H]2COc2ccc3c(c2)OCO3)cc1", "MEASUREMENT LABEL": "OCT1 Ratio", "READOUT VALUE": 1.17}
{"COMPOUND": "CC(C)(C)NCC(O)c1cc(Cl)c(N)c(Cl)c1 (stereo not drawn)", "MEASUREMENT LABEL": "OCT1 Ratio", "READOUT VALUE": 1.10}
{"COMPOUND": "CCOC(=O)c1cncn1[C@H](C)c1ccccc1 [Etomidate]", "MEASUREMENT LABEL": "OCT1 Ratio", "READOUT VALUE": 0.94}
{"COMPOUND": "N[C@@H]1C[C@H]1c1ccccc1 (racemic)", "MEASUREMENT LABEL": "OCT1 Ratio", "READOUT VALUE": 1.60}

###

SYSTEM TESTED: OCT1 (Homo sapiens)
Construct: expressed in transfected cells; host or cells: HEK293
EXPERIMENTAL DETAILS: Cell uptake in OCT1 overexpressing HEK293 cells over empty-vector transfected cells
Type: cell-based
TEST SETTINGS: cell uptake in OCT1 overexpressing cells over uptake in mock transfected cells
MEASUREMENT LABEL: OCT1 Ratio

{"MOLECULE": "CN(C)CCC=C1c2ccccc2CCc2ccccc21", "SYSTEM TESTED": "OCT1 (Homo sapiens)", "READOUT VALUE": 1.20}
{"MOLECULE": "CNC[C@H](O)c1cccc(O)c1", "SYSTEM TESTED": "OCT1 (Homo sapiens)", "READOUT VALUE": 10.60}
{"MOLECULE": "CN(C)CCc1c[nH]c2ccc(C[C@H]3COC(=O)N3)cc12", "SYSTEM TESTED": "OCT1 (Homo sapiens)", "READOUT VALUE": 10.00}
{"MOLECULE": "CC12CC3CC(C)(C1)CC(N)(C3)C2 [Memantine]", "SYSTEM TESTED": "OCT1 (Homo sapiens)", "READOUT VALUE": 1.10}
{"MOLECULE": "COc1ccccc1N1CCN(CCCNc2cc(=O)n(C)c(=O)n2C)CC1", "SYSTEM TESTED": "OCT1 (Homo sapiens)", "READOUT VALUE": 1.10}
{"MOLECULE": "CC(CCc1ccc(O)cc1)NCCc1ccc(O)c(O)c1 (stereo not drawn)", "SYSTEM TESTED": "OCT1 (Homo sapiens)", "READOUT VALUE": 14.70}
{"MOLECULE": "NNC(=O)c1ccncc1", "SYSTEM TESTED": "OCT1 (Homo sapiens)", "READOUT VALUE": 0.94}
{"MOLECULE": "Cc1ncc(C[n+]2csc(CCO)c2C)c(N)n1", "SYSTEM TESTED": "OCT1 (Homo sapiens)", "READOUT VALUE": 11.60}
{"MOLECULE": "C[N+](C)(C)CC(=O)O", "SYSTEM TESTED": "OCT1 (Homo sapiens)", "READOUT VALUE": 1.00}
{"MOLECULE": "CC(C)NCC(O)COc1ccc(COCCOC(C)C)cc1 (stereo not drawn)", "SYSTEM TESTED": "OCT1 (Homo sapiens)", "READOUT VALUE": 1.00}
{"MOLECULE": "CC[C@@H](C(N)=O)N1CCCC1=O", "SYSTEM TESTED": "OCT1 (Homo sapiens)", "READOUT VALUE": 1.00}
{"MOLECULE": "Cn1c(=O)[nH]c2ncn(C)c2c1=O", "SYSTEM TESTED": "OCT1 (Homo sapiens)", "READOUT VALUE": 1.00}
{"MOLECULE": "COc1cc(Cc2cnc(N)nc2N)cc(OC)c1OC", "SYSTEM TESTED": "OCT1 (Homo sapiens)", "READOUT VALUE": 1.90}
{"MOLECULE": "CN1CCC[C@@H]1Cc1c[nH]c2ccc(CCS(=O)(=O)c3ccccc3)cc12", "SYSTEM TESTED": "OCT1 (Homo sapiens)", "READOUT VALUE": 1.20}
{"MOLECULE": "CC(C)NCC(O)COc1cccc2[nH]ccc12 (stereo not drawn)", "SYSTEM TESTED": "OCT1 (Homo sapiens)", "READOUT VALUE": 1.20}
{"MOLECULE": "Cc1nccn1CC1CCc2c(c3ccccc3n2C)C1=O (stereo not drawn)", "SYSTEM TESTED": "OCT1 (Homo sapiens)", "READOUT VALUE": 1.00}
{"MOLECULE": "C[N+](C)(C)CCO", "SYSTEM TESTED": "OCT1 (Homo sapiens)", "READOUT VALUE": 1.50}
{"MOLECULE": "CN[C@@H]1CCc2[nH]c3ccc(C(N)=O)cc3c2C1", "SYSTEM TESTED": "OCT1 (Homo sapiens)", "READOUT VALUE": 33.10}
{"MOLECULE": "NC(=O)c1cnccn1 [Pyrazinamide]", "SYSTEM TESTED": "OCT1 (Homo sapiens)", "READOUT VALUE": 0.80}
{"MOLECULE": "CN(C)CCC=C1c2ccccc2COc2ccccc21 [Doxepin]", "SYSTEM TESTED": "OCT1 (Homo sapiens)", "READOUT VALUE": 1.30}
{"MOLECULE": "COc1cc(OC)c(C(=O)CCCN2CCCC2)c(OC)c1", "SYSTEM TESTED": "OCT1 (Homo sapiens)", "READOUT VALUE": 1.00}
{"MOLECULE": "CC(C)NCC(O)COc1cccc2ccccc12 (stereo not drawn)", "SYSTEM TESTED": "OCT1 (Homo sapiens)", "READOUT VALUE": 1.10}
{"MOLECULE": "CCCC(=O)Nc1ccc(OCC(O)CNC(C)C)c(C(C)=O)c1 (stereo not drawn)", "SYSTEM TESTED": "OCT1 (Homo sapiens)", "READOUT VALUE": 5.20}
{"MOLECULE": "C[C@@H](O)[C@H]1C(=O)N2C(C(=O)O)=C(S[C@@H]3CN[C@H](C(=O)N(C)C)C3)[C@H](C)[C@H]12", "SYSTEM TESTED": "OCT1 (Homo sapiens)", "READOUT VALUE": 1.10}

###

SYSTEM TESTED: OCT1 (Homo sapiens, UniProt O15245)
Construct: expressed in transfected cells; host or cells: HEK293
EXPERIMENTAL DETAILS: Cell uptake in OCT1 overexpressing HEK293 cells over empty-vector transfected cells
Assay type: cell-based
Here the recorded OCT1 Ratio is given for each entry.

{"COMPOUND": "COc1ccc2c3c1O[C@H]1[C@@H](O)CC[C@H]4[C@@H](C2)N(C)CC[C@@]341 [Dihydrocodeine]", "SYSTEM TESTED": "OCT1 (Homo sapiens, UniProt O15245)", "OCT1 Ratio": 0.80}
{"COMPOUND": "CNC1(c2ccccc2Cl)CCCCC1=O (stereo not drawn)", "SYSTEM TESTED": "OCT1 (Homo sapiens, UniProt O15245)", "OCT1 Ratio": 1.10}
{"COMPOUND": "Cn1c(=O)c2[nH]cnc2n(C)c1=O", "SYSTEM TESTED": "OCT1 (Homo sapiens, UniProt O15245)", "OCT1 Ratio": 1.00}
{"COMPOUND": "CCOC(=O)C1(c2ccccc2)CCC=CC1N(C)C (stereo not drawn)", "SYSTEM TESTED": "OCT1 (Homo sapiens, UniProt O15245)", "OCT1 Ratio": 1.30}
{"COMPOUND": "CNC(=C[N+](=O)[O-])NCCSCc1ccc(CN(C)C)o1", "SYSTEM TESTED": "OCT1 (Homo sapiens, UniProt O15245)", "OCT1 Ratio": 18.10}
{"COMPOUND": "CCN(CC)CCNC(=O)c1cc(Cl)c(N)cc1OC [Metoclopramide]", "SYSTEM TESTED": "OCT1 (Homo sapiens, UniProt O15245)", "OCT1 Ratio": 1.80}
{"COMPOUND": "CN1[C@@H]2C[C@@H](OC(=O)[C@H](CO)c3ccccc3)C[C@H]1[C@@H]1O[C@@H]12", "SYSTEM TESTED": "OCT1 (Homo sapiens, UniProt O15245)", "OCT1 Ratio": 1.10}
{"COMPOUND": "N#CC(CCN1CCC(C(N)=O)(N2CCCCC2)CC1)(c1ccccc1)c1ccccc1 [Piritramide]", "SYSTEM TESTED": "OCT1 (Homo sapiens, UniProt O15245)", "OCT1 Ratio": 1.18}
{"COMPOUND": "CC(C)(C)NCC(O)c1ccc(O)c(CO)n1 (stereo not drawn)", "SYSTEM TESTED": "OCT1 (Homo sapiens, UniProt O15245)", "OCT1 Ratio": 80.90}
{"COMPOUND": "COC(=O)C(c1ccccc1)C1CCCCN1 (stereo not drawn) [Methylphenidate]", "SYSTEM TESTED": "OCT1 (Homo sapiens, UniProt O15245)", "OCT1 Ratio": 1.90}
{"COMPOUND": "Nc1nc2c(ncn2COCCO)c(=O)[nH]1", "SYSTEM TESTED": "OCT1 (Homo sapiens, UniProt O15245)", "OCT1 Ratio": 2.00}
{"COMPOUND": "CNCC[C@H](Oc1cccc2ccccc12)c1cccs1", "SYSTEM TESTED": "OCT1 (Homo sapiens, UniProt O15245)", "OCT1 Ratio": 1.20}
{"COMPOUND": "CNCC1CCCCC1(O)c1cccc(OC)c1 (stereo not drawn)", "SYSTEM TESTED": "OCT1 (Homo sapiens, UniProt O15245)", "OCT1 Ratio": 2.40}
{"COMPOUND": "CCC1(c2cccc(O)c2)CCCCN(C)C1 (stereo not drawn)", "SYSTEM TESTED": "OCT1 (Homo sapiens, UniProt O15245)", "OCT1 Ratio": 3.20}
{"COMPOUND": "COc1ccc2c3c1O[C@H]1C(=O)CC[C@H]4[C@@H](C2)N(C)CC[C@]314 [Hydrocodone]", "SYSTEM TESTED": "OCT1 (Homo sapiens, UniProt O15245)", "OCT1 Ratio": 1.20}
